- Test system: RXF 393 renal
- PROTOCOL: NCI tumour cell line growth inhibition, 48 h; in the data active means GI50 below about 0.43 µM; inactive means the rest
Pick one and only one: active, inactive

1) COc1ccc2c(c1)/C(=N/OC(C)=O)c1c-2c(OC)nc2ccccc12: inactive

Hi, do you know how C(=N\Nc1ccc2ccccc2n1)/c1ccccn1 came out in this test?
inactive

Hi, do you know how CC12O[C@H](C[C@@H](OC(=O)CCC(=O)O)[C@H]1O)n1c3ccccc3c3c4c(c5c6ccccc6n2c5c31)C(=O)NC4=O came out in this test?
inactive

Hi, do you know how CC(=O)[CH-]C(=O)c1ccccc1.CC(=O)[CH-]C(=O)c1ccccc1.CC(=O)[CH-]C(=O)c1ccccc1.[Ga+3] came out in this test?
inactive

Hi, do you know how COc1ccc2nc3ccccc3c(NCCNCC(C)O)c2c1 (stereo not given) came out in this test?
active

----------
Overview of recorded TGI for various compounds
- System: SF-268 CNS
- PROTOCOL: NCI tumour cell line growth inhibition, 48 h

1. O=C1c2cccnc2-c2nccc3c2c1nc1ccccc13: 0.834 µM
2. CCOS(=O)(=O)c1ccc(-c2c3nc(c(-c4ccc(S(=O)(=O)OCC)cc4)c4ccc([nH]4)c(-c4ccc(S(=O)(=O)OCC)cc4)c4nc(c(-c5ccc(S(=O)(=O)OCC)cc5)c5ccc2[nH]5)C=C4)C=C3)cc1: > 31.6 µM
3. CC1(C)C(=O)/C=C\C(=O)C(C)(C)C(=O)/C=C\C(=O)C(C)(C)C2=CC=C(O2)C(C)(C)C(=O)/C=C\C1=O: 43.8 µM

Write down TGI measured for item S=C(SSC(=S)N1CCCCC1)N1CCCCC1
41.6 µM

Write down TGI measured for item CCOC(=O)NN(C(=O)OCC)C(C(=O)c1ccccc1)N(NC(=O)OCC)C(=O)OCC
> 100 µM

Write down TGI measured for item COc1ccc(-c2oc3cc(O)c(OC)c(O)c3c(=O)c2O)cc1
> 77.1 µM

Write down TGI measured for item Cc1c(-c2ccccn2)ccc2ccccc12
> 100 µM

Write down TGI measured for item CN1C(=O)C23CCCC2CC1(c1ccccc1)S3 (stereo not drawn)
> 100 µM

Write down TGI measured for item C[C@]12CCC(=O)C[C@@H]1CC[C@@H]1[C@@H]2CC[C@]2(C)[C@@H](OC(=O)N(CCCl)N=O)CC[C@@H]12
8.85 µM

----------
- Tested on: SK-MEL-2 melanoma
- PROTOCOL: NCI tumour cell line growth inhibition, 48 h; in the data active = GI50 below about 0.43 µM; inactive = the rest
Pick one and only one: 1 (yes) for active, 0 (no) for inactive

1. CC/C=C\C[C@H]1C/C=C2/C(=O)C(Cl)=C[C@@H]2C/C=C\CCCC(=O)O1: 0 (no)

Hi, do you know how C=C(C)C(=O)Nc1ccc(-c2c(-c3ccc(Oc4nccc(C)n4)c(F)c3)c3c(N)ncnc3n2C)cc1 came out in this test?
0 (no)

Hi, do you know how O=C1/C(=C/c2ccc([N+](=O)[O-])o2)Oc2ccc(Cl)cc21 came out in this test?
0 (no)

Hi, do you know how CCC(=O)Nc1nnc(Cc2ccc(OC)c(OC)c2)s1 came out in this test?
0 (no)

Hi, do you know how COC(=O)CC1=C(C)/C(=C/c2[nH]c(-c3ccc[nH]3)cc2OC)N=C1C came out in this test?
1 (yes)

----------
- System: NCI/ADR-RES ovarian
- PROTOCOL: NCI tumour cell line growth inhibition, 48 h
Decision: TGI >= 40 µM yields Condition met, all other cases yield Condition not met.

Answered examples (2):
1) Cc1cc(O)c2c(c1)C(C1c3cccc(O)c3C(=O)c3c(O)cc(C)cc31)c1cccc(O)c1C2=O (centres undefined): Condition not met
2) C=C(C)C(=O)Nc1ccc(-c2c(-c3ccc(Oc4nccc(C)n4)c(F)c3)c3c(N)ncnc3n2C)cc1: Condition not met

Hello, I need to know if CC/C=C\C[C@H]1C/C=C2/C(=O)C(Cl)=C[C@@H]2C/C=C\CCCC(=O)O1 has measured TGI not below 40 µM. Thanks!
Condition not met

Hello, I need to know if COC(=O)C12Oc3ccc(-c4ccc5c(c4O)C(O)=C4C(=O)CC(C)C(O)C4(C(=O)OC)O5)c(O)c3C(O)=C1C(=O)CC(C)C2O (centres undefined) has measured TGI not below 40 µM. Thanks!
Condition met

Hello, I need to know if O=C(NCCNCCO)c1ccc(Nc2nc3ccccc3c3occc23)cc1 has measured TGI not below 40 µM. Thanks!
Condition met

Hello, I need to know if COc1ccc2c3/c(=C\c4ccc(N(C)C)cc4)c4ccccc4n3[n+](C)c2c1 has measured TGI not below 40 µM. Thanks!
Condition met

Hello, I need to know if O=C1CN(c2cccc(C(F)(F)F)c2)C(=O)CN1CCN1CC(=O)N(c2cccc(C(F)(F)F)c2)CC1=O has measured TGI not below 40 µM. Thanks!
Condition met

Hello, I need to know if O=c1[nH]cnc2c1cnn2Cc1cnnn1COCCO has measured TGI not below 40 µM. Thanks!
Condition met
